- Test system: Human Bladder Cancer TSGH cells
- protocol_description: MTT assay
- Format: cell-based
- test_context: 72 hr
For each record, write down the corresponding IC50.
// return numeric value only (unit: µM, not printed)

[in] Request the reported IC50 associated with Cc1ccc(C)c2c1[nH]c1c(NS(=O)(=O)c3ccc([N+](=O)[O-])cc3)cccc12
[out] 40.6

[in] Request the reported IC50 associated with Cc1ccc(S(=O)(=O)Nc2cccc3cc[nH]c23)cc1
[out] 9.4

[in] Request the reported IC50 associated with Cc1ccc(C)c2c1[nH]c1c(NS(=O)(=O)c3ccc(N)cc3)cccc12
[out] 39

[in] Request the reported IC50 associated with Cc1ccc(C)c2c1[nH]c1c(NS(=O)(=O)c3ccccc3)cccc12
[out] 160

[in] Request the reported IC50 associated with COc1ccc(S(=O)(=O)Nc2cccc3c2[nH]c2c(C)ccc(C)c23)cc1
[out] 0.5

[in] Request the reported IC50 associated with O=S(=O)(Nc1cccc2cc[nH]c12)c1ccccc1 [Compound 5a, N-(1H-Indol-7-yl)benzenesulfonamide]
[out] 7.5

[in] Request the reported IC50 associated with COc1ccc(S(=O)(=O)Nc2cccc3cc[nH]c23)cc1
[out] 2.4

[in] Request the reported IC50 associated with Cc1ccc(S(=O)(=O)Nc2cccc3c2[nH]c2c(C)ccc(C)c23)cc1
[out] 2.1

[in] Request the reported IC50 associated with Cc1ccc(C)c2c1[nH]c1c(NS(=O)(=O)c3ccc(S(N)(=O)=O)cc3)cccc12
[out] 80.7

[in] Request the reported IC50 associated with NS(=O)(=O)c1ccc(S(=O)(=O)Nc2cccc3cc[nH]c23)cc1
[out] 37.5

The reported numbers originate from patent US8173693B2.
